system: pain threshold (brewer's yeast, hind paw); test: Analgesic activity, Randall-Selitto method in rat; assay type: in vivo, rat (Wistar strain, male); conditions: 1 mg/kg p.o.; 100% = pain threshold raised by 150 g
The compounds listed here are annotated with their Inhibition.

| compound | result unit | Inhibition |
| --- | --- | --- |
| CC(C(=O)O)c1ccc(-c2cccs2)c(Cl)c1 (stereo not drawn) [Compound C3] | % | 14.4 |
| O=C(O)Cc1ccccc1Nc1c(Cl)cccc1Cl [Diclofenac sodium] | % | 22.7 |
| CC(C(=O)O)c1ccc(-c2cccs2)cc1 (stereo not drawn) [Compound C2] | % | 33.8 |
| COc1ccc2c(c1)c(CC(=O)O)c(C)n2C(=O)c1ccc(Cl)cc1 [Indomethacin] | % | 27.4 |
| Cc1ccsc1-c1ccc(C(C)C(=O)O)cc1 (single isomer, unassigned; isomer d) [d-Isomer] | % | 37.1 |
| Cc1ccsc1-c1ccc(C(C)C(=O)O)cc1 (racemic) [Racemic compound] | % | 44.3 |

----------
system: pain threshold (brewer's yeast, hind paw); experiment: Analgesic activity, Randall-Selitto method in rat; assay type: in vivo, rat (Wistar strain, male); details: 5 mg/kg p.o.; 100% = pain threshold raised by 150 g
quantity kind: Inhibition

| compound | result |
| --- | --- |
| COc1ccc2c(c1)c(CC(=O)O)c(C)n2C(=O)c1ccc(Cl)cc1 | 41.6% |
| O=C(O)Cc1ccccc1Nc1c(Cl)cccc1Cl [Diclofenac sodium] | 49.7% |
| Cc1ccsc1-c1ccc(C(C)C(=O)O)cc1 (racemic) [Racemic compound] | 45.2% |
| CC(C(=O)O)c1ccc(-c2cccs2)cc1 (stereo not drawn) | 35.2% |
| CC(C(=O)O)c1ccc(-c2cccs2)c(Cl)c1 (stereo not drawn) | 32.5% |
| Cc1ccsc1-c1ccc(C(C)C(=O)O)cc1 (single isomer, unassigned; isomer d) [d-Isomer] | 48.5% |

----------
test system: fever (Mycobacterium butyricum); assay: Antipyretic action; type: in vivo, rat (Wistar strain, female); details: 5 mg/kg p.o.
The compounds listed here are annotated with their Mean decrease in temp..
quantity kind: Mean decrease in temp. (°C)

| compound | measured number |
| --- | --- |
| Cc1ccsc1-c1ccc(C(C)C(=O)O)cc1 (racemic) [Racemic compound] | 1.70 |
| COc1ccc2c(c1)c(CC(=O)O)c(C)n2C(=O)c1ccc(Cl)cc1 | 1.35 |
| O=C(O)Cc1ccccc1Nc1c(Cl)cccc1Cl [Diclofenac sodium] | 1.57 |
| Cc1ccsc1-c1ccc(C(C)C(=O)O)cc1 (single isomer, unassigned; isomer d) [d-Isomer] | 1.63 |
| CCCCC1C(=O)N(c2ccccc2)N(c2ccccc2)C1=O | 0.27 |

----------
test system: phenylbenzoquinone writhing; experiment: Analgesic activity, phenylbenzoquinone method in mouse; format: in vivo, mouse (ddY strain, male); details: 40 mg/kg p.o., during 10 minutes

| compound | Frequency of writhing, mean ± S.E. |
| --- | --- |
| CCc1ccsc1-c1ccc(C(C)C(=O)O)cc1 (stereo not drawn) [Compound C1] | 23.1 |
| Cc1cc(-c2ccc(C(C)C(=O)O)cc2)sc1C (stereo not drawn) [Compound C7] | 19.1 |
| Cc1csc(-c2ccc(C(C)C(=O)O)cc2)c1 (stereo not drawn) [Compound C5] | 23.4 |
| Cc1ccc(-c2ccc(C(C)C(=O)O)cc2)s1 (stereo not drawn) [Compound C6] | 18.2 |
| CCCc1ccsc1-c1ccc(C(C)C(=O)O)cc1 (stereo not drawn) [Compound C4] | 24.0 |
| CC(C(=O)O)c1ccc(-c2cccs2)c(Cl)c1 (stereo not drawn) [Compound C3] | 12.4 |
| CC(C(=O)O)c1ccc(-c2ccc(Cl)s2)cc1 (stereo not drawn) [Compound C8] | 6.3 |
| CC(C(=O)O)c1ccc(-c2cccs2)cc1 (stereo not drawn) [Compound C2] | 11.1 |
| O=C(O)Cc1ccc(-c2cccs2)cc1 [Compound C9] | 13.9 |
